molecular target: NPR-B (Homo sapiens); construct: a functional assay using endogenously NPR-B expressing GTM-3 cells; endogenous in cells; host or cells: GTM-3 (transformed human trabecular meshwork cells); assay: NPR-B induced production of cyclic GMP in GTM-3 cells; format: cell-based; conditions: GTM-3 cells; group needs both EC50 and Emax criteria, checked A then B then C; read-out: Activity (group): NPR-B activation, EC50 and Emax (CNP = 100%)
// EC50 lookup, one value per entry

Request: EC50 lookup needed for CCCCCC(=O)N[C@H]1CSSC[C@@H](C(N)=O)NC(=O)[C@H](CO)NC(=O)C2(CCOCC2)NC(=O)[C@H](CCCNC(=N)N)NC(=O)[C@H](CC(=O)O)NC(=O)[C@H](CC(C)C)NC(=O)[C@H](CCCCN)NC(=O)[C@H](CC(C)C)NC(=O)CNC(=O)[C@H](Cc2ccccc2)NC(=O)[C@@H](C)NC1=O , thanks.
Response: < 15 µM

Others:
Request: EC50 lookup needed for CCCCCC(=O)N[C@H]1CSSC[C@@H](C(N)=O)NC(=O)[C@H](CO)NC(=O)[C@H]([C@@H](C)CC)NC(=O)[C@H](Cc2ccc(C(=N)N)cc2)NC(=O)[C@H](CC(=O)O)NC(=O)[C@H](CC(C)C)NC(=O)[C@H](CCCCN)NC(=O)[C@H](CC(C)C)NC(=O)CNC(=O)[C@H](Cc2ccccc2)NC(=O)[C@@H](C)NC1=O , thanks.
Response: < 15 µM

* * *

Target: NPR-B (Homo sapiens, UniProt P20594)
Construct: a functional assay using endogenously NPR-B expressing GTM-3 cells; endogenous in cells; host or cells: GTM-3 (transformed human trabecular meshwork cells)
Sequence (P20594 23-1047): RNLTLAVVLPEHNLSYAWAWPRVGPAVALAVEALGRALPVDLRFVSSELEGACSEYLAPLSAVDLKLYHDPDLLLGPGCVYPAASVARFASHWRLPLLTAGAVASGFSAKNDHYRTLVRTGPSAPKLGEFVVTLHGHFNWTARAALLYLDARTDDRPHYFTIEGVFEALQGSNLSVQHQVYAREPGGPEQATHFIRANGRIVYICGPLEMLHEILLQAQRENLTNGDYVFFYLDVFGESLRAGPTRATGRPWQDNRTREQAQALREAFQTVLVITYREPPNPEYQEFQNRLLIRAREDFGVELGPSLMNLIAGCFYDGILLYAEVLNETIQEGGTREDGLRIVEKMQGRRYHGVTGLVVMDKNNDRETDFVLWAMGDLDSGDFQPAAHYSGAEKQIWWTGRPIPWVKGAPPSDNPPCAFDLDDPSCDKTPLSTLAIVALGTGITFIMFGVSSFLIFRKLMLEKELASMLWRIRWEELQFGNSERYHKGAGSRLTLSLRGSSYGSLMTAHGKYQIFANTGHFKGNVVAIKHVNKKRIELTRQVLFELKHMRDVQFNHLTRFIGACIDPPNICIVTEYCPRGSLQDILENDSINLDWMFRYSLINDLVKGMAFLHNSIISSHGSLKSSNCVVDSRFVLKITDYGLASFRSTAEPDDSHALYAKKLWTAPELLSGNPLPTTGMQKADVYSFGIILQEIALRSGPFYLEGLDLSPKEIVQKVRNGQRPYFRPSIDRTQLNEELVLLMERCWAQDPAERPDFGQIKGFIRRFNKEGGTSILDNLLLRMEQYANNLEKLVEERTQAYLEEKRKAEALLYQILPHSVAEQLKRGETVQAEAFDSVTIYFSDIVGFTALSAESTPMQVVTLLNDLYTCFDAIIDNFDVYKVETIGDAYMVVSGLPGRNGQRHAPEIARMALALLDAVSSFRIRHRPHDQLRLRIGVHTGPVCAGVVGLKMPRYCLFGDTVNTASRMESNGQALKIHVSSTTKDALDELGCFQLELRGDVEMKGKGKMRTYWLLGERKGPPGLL
Assay: NPR-B induced production of cyclic GMP in GTM-3 cells
Assay type: cell-based
Settings: GTM-3 cells; group needs both EC50 and Emax criteria, checked A then B then C; read-out: Activity (group): NPR-B activation, EC50 and Emax (CNP = 100%)
Protocol: The efficacy and potency of compounds to activate NPR-B were evaluated in a functional assay using endogenously NPR-B expressing GTM-3 cells (Pang et al. 1994, Curr Eye Res 13:51-63). In this assay the dose dependent production of cyclic GMP (cGMP) is determined and Emax (maximum activation) and EC50 values are calculated. The cell culture medium is aspirated and each well is washed with 200 μl DMEM/Ham's F12=Medium (Gibco). […]
propertyName: EC50

Request: Find the measured EC50: item CC[C@H](C)[C@@H]1NC(=O)[C@H](CCCNC(=N)N)NC(=O)[C@H](CC(=O)O)NC(=O)[C@H](CC(C)C)NC(=O)[C@H](CCCCN)NC(=O)[C@H](CC(C)C)NC(=O)CNC(=O)[C@H](Cc2ccccc2)NC(=O)[C@H](C)NC(=O)[C@@H](NC(=O)[C@@H](N)CCSC)CSSC[C@@H](C(N)=O)NC(=O)[C@H](CO)NC1=O [compound 8] , target or system NPR-B (Homo sapiens, UniProt P20594).
Response: < 5 µM

Others:
Request: Find the measured EC50: item CCCCCC(=O)N[C@H]1CSSC[C@@H](C(N)=O)NC(=O)[C@H](CO)NC(=O)[C@H]([C@@H](C)CC)NC(=O)[C@H](CCCNC(=N)N)NC(=O)[C@H](CC(=O)O)NC(=O)[C@H](CC(C)C)NC(=O)[C@H](CCCCN)NC(=O)[C@H](CC(C)C)NC(=O)CNC(=O)[C@H](Cc2cccc(C(F)(F)F)c2)NC(=O)[C@@H](C)NC1=O [compound 105] , target or system NPR-B (Homo sapiens, UniProt P20594).
Response: < 15 µM

* * *

// EC50 lookup, one value per entry
molecular target: NPR-B (Homo sapiens, UniProt P20594); construct: a functional assay using endogenously NPR-B expressing GTM-3 cells; endogenous in cells; host or cells: GTM-3 (transformed human trabecular meshwork cells); experiment: NPR-B induced production of cyclic GMP in GTM-3 cells; assay type: cell-based; conditions: GTM-3 cells; group needs both EC50 and Emax criteria, checked A then B then C; read-out: Activity (group): NPR-B activation, EC50 and Emax (CNP = 100%)
Where a SMILES comes first, the peptide text is derived from it. Bridges are numbered along the chain shown (N, C = ends). [ ]: non-standard residue; d: D form.

Reference set, count: 5
Request: EC50 lookup needed for CC[C@H](C)[C@@H]1NC(=O)[C@H](CCCNC(=N)N)NC(=O)[C@H](CC(=O)O)NC(=O)[C@H](CC(C)C)NC(=O)[C@H](CCCCN)NC(=O)[C@H](CC(C)C)NC(=O)CNC(=O)[C@H](Cc2ccccc2)NC(=O)[C@H](CO)NC(=O)[C@@H](NC(=O)[C@@H](N)CCSC)CSSC[C@@H](C(N)=O)NC(=O)[C@H](CO)NC1=O , thanks.
Response: < 5 µM

Request: EC50 lookup needed for CC[C@H](C)[C@@H]1NC(=O)[C@H](CCCNC(=N)N)NC(=O)[C@H](CC(=O)O)NC(=O)[C@H]([C@@H](C)CC)NC(=O)[C@H](CCCCN)NC(=O)[C@H](CC(C)C)NC(=O)CNC(=O)[C@H](Cc2ccccc2)NC(=O)[C@@H](C)NC(=O)[C@@H](NC(=O)[C@@H](N)CCSC)CSSC[C@@H](C(N)=O)NC(=O)[C@H](CO)NC1=O [compound 53] (H-MC[dA]FGLKIDRISC-NH2; disulfide 2-13) , thanks.
Response: < 1 µM

Request: EC50 lookup needed for CC[C@H](C)[C@@H]1NC(=O)[C@H](CCCNC(=N)N)NC(=O)[C@H](CC(=O)O)NC(=O)[C@H](CC(C)C)NC(=O)[C@H](CCCCN)NC(=O)[C@H](CC(C)C)NC(=O)CNC(=O)[C@H](Cc2ccc(Cl)cc2)NC(=O)[C@H](Cc2c[nH]cn2)NC(=O)[C@@H](NC(=O)[C@@H](N)CCSC)CSSC[C@@H](C(N)=O)NC(=O)[C@H](CO)NC1=O , thanks.
Response: < 15 µM

Request: EC50 lookup needed for CC[C@H](C)[C@@H]1NC(=O)[C@H](CCCNC(=N)N)NC(=O)[C@H](CC(=O)O)NC(=O)[C@H](C(C)C)NC(=O)[C@H](CCCCN)NC(=O)[C@H](CC(C)C)NC(=O)CNC(=O)[C@H](Cc2ccccc2)NC(=O)[C@@H](C)NC(=O)[C@@H](NC(=O)[C@@H](N)CCSC)CSSC[C@@H](C(N)=O)NC(=O)[C@H](CO)NC1=O [compound 54] (H-MC[dA]FGLKVDRISC-NH2; disulfide 2-13) , thanks.
Response: < 5 µM

Request: EC50 lookup needed for CC[C@H](C)[C@@H]1NC(=O)[C@H](CCCNC(=N)N)NC(=O)[C@H](CC(=O)O)NC(=O)[C@H](CC(C)C)NC(=O)[C@H](CCCCN)NC(=O)[C@H](CC(C)C)NC(=O)CNC(=O)[C@H](Cc2ccccc2)NC(=O)[C@H](Cc2c[nH]cn2)NC(=O)[C@@H](NC(=O)[C@@H](N)CCSC)CSSC[C@@H](C(=O)N[C@@H](CC(C)C)C(=O)N[C@@H](CCCNC(=N)N)C(N)=O)NC(=O)[C@H](CO)NC1=O [compound 23] (H-MCHFGLKLDRISCLR-NH2; disulfide 2-13) , thanks.
Response: < 5 µM

Others:
Request: EC50 lookup needed for CC[C@H](C)[C@@H]1NC(=O)[C@H](CCCNC(=N)N)NC(=O)[C@H](CC(=O)O)NC(=O)[C@H](CC(C)C)NC(=O)[C@H](CCCCN)NC(=O)[C@H](CC(C)C)NC(=O)CNC(=O)[C@H](Cc2ccccc2)NC(=O)[C@H](Cc2c[nH]cn2)NC(=O)[C@@H](NC(=O)[C@@H](N)CCSC)CSSC[C@@H](C(=O)N[C@@H](Cc2ccc(O)cc2)C(N)=O)NC(=O)[C@H](CO)NC1=O [compound 6] (H-MCHFGLKLDRISCY-NH2; disulfide 2-13) , thanks.
Response: < 5 µM

Request: EC50 lookup needed for CC[C@H](C)[C@@H]1NC(=O)[C@H](CCCNC(=N)N)NC(=O)[C@H](CC(=O)O)NC(=O)[C@H](CC(C)C)NC(=O)[C@H](CCCCN)NC(=O)[C@H](CC(C)C)NC(=O)CNC(=O)[C@H](Cc2ccccc2)NC(=O)[C@H](Cc2c[nH]cn2)NC(=O)[C@@H](NC(=O)[C@@H](N)CCSC)CSSC[C@@H](C(=O)N[C@@H](Cc2ccc(O)cc2)C(=O)N[C@@H](Cc2c[nH]cn2)C(N)=O)NC(=O)[C@H](CO)NC1=O [compound 28] (H-MCHFGLKLDRISCYH-NH2; disulfide 2-13) , thanks.
Response: < 5 µM

Request: EC50 lookup needed for CC[C@H](C)[C@@H]1NC(=O)[C@H](CCCNC(=N)N)NC(=O)[C@H](CC(=O)O)NC(=O)[C@H](CC(C)C)NC(=O)[C@H](CCCCN)NC(=O)[C@H](CC(C)C)NC(=O)CNC(=O)[C@H](Cc2ccccc2)NC(=O)[C@H](Cc2c[nH]cn2)NC(=O)[C@@H](NC(=O)[C@@H](N)CCSC)CSSC[C@@H](C(N)=O)NC(=O)[C@H](CO)NC1=O , thanks.
Response: < 5 µM

Request: EC50 lookup needed for CC[C@H](C)[C@@H]1NC(=O)[C@H](CCCNC(=N)N)NC(=O)[C@H](CC(=O)O)NC(=O)[C@H](CC(C)C)NC(=O)[C@H](CCCCN)NC(=O)[C@H](CC(C)C)NC(=O)[C@@H](C)NC(=O)[C@H](Cc2ccccc2)NC(=O)CNC(=O)[C@@H](NC(=O)[C@@H](N)CCSC)CSSC[C@@H](C(N)=O)NC(=O)[C@H](CO)NC1=O [compound 34] (H-MCGF[dA]LKLDRISC-NH2; disulfide 2-13) , thanks.
Response: < 5 µM

Request: EC50 lookup needed for CC[C@H](C)[C@@H]1NC(=O)[C@H](CCCNC(=N)N)NC(=O)[C@H](CC(=O)O)NC(=O)[C@H](CC(C)C)NC(=O)[C@H](CCCCN)NC(=O)[C@H](CC(C)C)NC(=O)CNC(=O)[C@H](Cc2ccccc2)NC(=O)[C@@H](Cc2ccccc2)NC(=O)[C@@H](NC(=O)[C@@H](N)CCSC)CSSC[C@@H](C(N)=O)NC(=O)[C@H](CO)NC1=O , thanks.
Response: < 15 µM
